Hello, the source for this data is a melting point compilation (Tetko et al.; mined from patent text by program, amines drawn as free bases though some values may be those of a salt), in case you need it.

I'd appreciate it if you could supply melting point values for the items below.

Task: Identify measured melting point corresponding to COc1ccc(C(O)C(CO)[N+](=O)[O-])cc1OC (stereo not given)
Result: 134 to 138 °C

Task: Identify measured melting point corresponding to CC(C)c1cccc(C(C)C)c1NC(=O)C1c2ccccc2COc2ccc(C(=O)O)cc21 (stereo not given)
Result: 289 to 290 °C

Task: Identify measured melting point corresponding to c1ccc2cc(N3CCN(Cc4n[nH]c5ccccc45)CC3)ncc2c1
Result: 214 to 215 °C

Task: Identify measured melting point corresponding to COc1ccc(S(=O)(=O)N2c3ccc(Cl)cc3C(O)(c3ccccc3Cl)C2C(=O)N2CCN(C)CC2)cc1OC (stereo not given)
Result: 120 °C

Task: Identify measured melting point corresponding to NN(Cc1ccccc1[N+](=O)[O-])c1ccccc1
Result: 67 to 69 °C

Task: Identify measured melting point corresponding to COC(=O)C(=CO)N(C)C(=O)C=Cc1ccccc1Cl
Result: 129 to 130 °C

Task: Identify measured melting point corresponding to CCCCCCCNC(=O)Nc1ccccc1C(=O)N1CCN(C(c2ccccc2)c2ccccc2)CC1
Result: 125 to 127 °C

Task: Identify measured melting point corresponding to COc1ccc2c(c1)C(=O)c1ccc(Nc3ccc(F)c(F)c3F)cc1CC2
Result: 128 °C

Task: Identify measured melting point corresponding to O=C1OC2(CCN(C(=O)Nc3cnc(-c4ccccc4)cn3)CC2)c2cc(O)ccc21
Result: 206 to 208 °C

Task: Identify measured melting point corresponding to COC(=O)c1cc(-c2ccc(Cl)cc2)n(-c2ccc(Cl)cc2Cl)n1
Result: 167 °C

Task: Identify measured melting point corresponding to CC(C)c1c(C=O)c(-c2ccc(F)cc2)n2ccccc12
Result: 97 to 98 °C

Task: Identify measured melting point corresponding to COc1cc(Cc2cnc(NOC3CCCCO3)nc2NO)cc(OC)c1OC (stereo not given)
Result: 190 to 192 °C

Task: Identify measured melting point corresponding to COC(=O)c1cc2ccc(SCc3ccc(OC)cc3)cc2nc1OC
Result: 133 to 134 °C

Task: Identify measured melting point corresponding to CCCCCCCCCCCCCCc1ccc(CC)c(O)c1
Result: 59 to 60 °C

Task: Identify measured melting point corresponding to COCC(=O)OCn1cc(C#N)c(-c2cccc(Cl)c2Cl)c1
Result: 72 to 75 °C

Task: Identify measured melting point corresponding to COc1cc(C2NC(=O)C(C)S2)cc(OC)c1OC (stereo not given)
Result: 133 to 134 °C

Task: Identify measured melting point corresponding to CC(C)(C)OC(=O)N1CCC(CNc2c([N+](=O)[O-])cnc3cc(-c4ccccc4)ccc23)CC1
Result: 153 to 154 °C

Task: Identify measured melting point corresponding to CCCCN1C(=O)CSC(=NOC(=O)NC)C1C (stereo not given)
Result: 118 to 120 °C

Task: Identify measured melting point corresponding to Cc1nc2sccn2c(=O)c1CCN1CCC(c2noc3cc(F)ccc23)CC1
Result: 165 °C

Task: Identify measured melting point corresponding to CC(C)(O)c1cccn2c(-c3ccnc(NC4CCC(C(=O)N5CCC(O)CC5)CC4)n3)cnc12 (stereo not given)
Result: 188 to 190 °C

---

I'd appreciate it if you could supply melting point values for the items below.

Task: Identify measured melting point corresponding to CC(C)[C@H]1CC[C@H](O)C=C1S(=O)(=O)c1ccccc1
Result: 105 °C

Task: Identify measured melting point corresponding to CCCCCCCCC(CCC)CC(=O)Nc1ccccc1 (stereo not drawn)
Result: 98 to 100 °C

Task: Identify measured melting point corresponding to Nc1ccnc(CCCCCN2C(=O)c3ccccc3C2=O)n1
Result: 101 to 104 °C

Task: Identify measured melting point corresponding to N#Cc1cccc2c1OCCN2
Result: 79 to 80 °C

Task: Identify measured melting point corresponding to Cc1ccc(C2=NN=CNC2C)cc1 (stereo not drawn)
Result: 246 °C

Task: Identify measured melting point corresponding to NC(=S)c1ccc([N+](=O)[O-])cc1
Result: 165 to 167 °C

Task: Identify measured melting point corresponding to CCOc1nc(NCc2ccncc2)nc(Nc2ccc3cc[nH]c3c2)n1
Result: 198 to 200 °C

Task: Identify measured melting point corresponding to N#Cc1ccc(C(=O)OCc2ccc[nH]c2=O)cc1
Result: 200 to 203 °C

Task: Identify measured melting point corresponding to COC(=O)c1cc(-c2cccc(C(F)(F)F)c2)ns1
Result: 82 to 83 °C

Task: Identify measured melting point corresponding to CC(C)(C)OC(=O)Oc1ccc(C(=O)OCc2ccccc2)cc1
Result: 81 °C

Task: Identify measured melting point corresponding to O=C1CCCN1c1ccc(F)cc1F
Result: 95 to 97 °C

Task: Identify measured melting point corresponding to O=C(NCCc1c[nH]c2ccccc12)c1cccnc1
Result: 150 to 152 °C

Task: Identify measured melting point corresponding to O=C(O)c1cccc(Nc2nc(Oc3ccccc3)nc(Oc3ccc(Cl)cc3)n2)c1
Result: 244 to 247 °C

Task: Identify measured melting point corresponding to CC(=O)NCCC[C@H]1NC(=O)[C@@H](Cc2cn(C)c3ccccc23)NC1=O
Result: 138 °C

Task: Identify measured melting point corresponding to CCC(=O)c1c[nH]c2c(OC)cccc2c1=O
Result: 260 to 263 °C

Task: Identify measured melting point corresponding to COc1ccc(OCc2ccc(OCc3nc(-c4ccccc4)oc3C)cc2)c(CC(=O)O)c1
Result: 134 to 136 °C

Task: Identify measured melting point corresponding to COc1ccc(C2(C)C(=O)Nc3cc(OC)cc(Cl)c3C2=O)cc1 (stereo not drawn)
Result: 222 to 224 °C

Task: Identify measured melting point corresponding to Cc1ccc(-c2c(N)ncnc2OCCO)cc1
Result: 91.5 to 93.5 °C

Task: Identify measured melting point corresponding to Nc1ccc(C(=O)N2Cc3ccccc3CC3=C2C=CC(Cl)C3)cc1 (stereo not drawn)
Result: 211 to 214 °C

Task: Identify measured melting point corresponding to Cc1cccc(CSc2c(O)cc(-c3ccccc3)oc2=O)c1
Result: 139 to 140 °C

Task: Identify measured melting point corresponding to NCC#CC1(Cl)C=CC=CC1C(=O)c1ccccc1Cl (stereo not drawn)
Result: 81 to 82 °C

Task: Identify measured melting point corresponding to CNCCCS(=O)(=O)CCCC(F)(F)C(F)(F)F
Result: 55 to 57 °C

Task: Identify measured melting point corresponding to CN(C)CC(=O)Nc1cccc(NC(=O)Nc2ccc(N(CCCl)CCCl)cc2)c1
Result: 62 to 64 °C
